- Test system: Trypanosoma brucei rhodesiense
- EXPERIMENTAL_DETAILS: Trypanocidal activity against Trypanosoma brucei rhodesiense assessed as reduction in intracellular ATP production incubated for 72 hrs by CellTiter-Glo luminescent cell viability assay
- Format: functional, organism-based
Recorded IC50 split into classes Low (below 20 µM), Medium (20 µM to below 30 µM), High (30 µM or more)

>  <SMILES_REPR>
COc1cccc(-c2ncc(-c3ccccc3NC(C)=O)o2)c1OC

>  <TARGET_SYSTEM>
Trypanosoma brucei rhodesiense

>  <CLASSIFICATION>
High

$$$$
>  <SMILES_REPR>
COc1ccccc1-c1nnc(-c2cccc(OC)c2OC)s1

>  <TARGET_SYSTEM>
Trypanosoma brucei rhodesiense

>  <CLASSIFICATION>
Medium

$$$$
>  <SMILES_REPR>
CCOc1ccccc1-c1cnc(-c2cccc(OC)c2OC)o1

>  <TARGET_SYSTEM>
Trypanosoma brucei rhodesiense

>  <CLASSIFICATION>
High

$$$$
>  <SMILES_REPR>
Oc1ccccc1-c1coc(-c2cccc(O)c2O)n1

>  <TARGET_SYSTEM>
Trypanosoma brucei rhodesiense

>  <CLASSIFICATION>
Low

$$$$
>  <SMILES_REPR>
COc1ccccc1-c1coc(-c2cccc(OC)c2OC)n1

>  <TARGET_SYSTEM>
Trypanosoma brucei rhodesiense

>  <CLASSIFICATION>
High

$$$$
>  <SMILES_REPR>
COc1ccc(OC)c(-c2cnc(-c3ccccc3)o2)c1

>  <TARGET_SYSTEM>
Trypanosoma brucei rhodesiense

>  <CLASSIFICATION>
High

$$$$
>  <SMILES_REPR>
COc1cccc(-c2ncc(-c3ccccc3C)o2)c1OC

>  <TARGET_SYSTEM>
Trypanosoma brucei rhodesiense

>  <CLASSIFICATION>
High

$$$$
>  <SMILES_REPR>
Oc1ccccc1-c1cnc(-c2cccc(O)c2O)o1

>  <TARGET_SYSTEM>
Trypanosoma brucei rhodesiense

>  <CLASSIFICATION>
Low

$$$$
>  <SMILES_REPR>
COc1cccc(-c2ncc(-c3ccc(OC)c(OC)c3OC)o2)c1OC

>  <TARGET_SYSTEM>
Trypanosoma brucei rhodesiense

>  <CLASSIFICATION>
High

$$$$
>  <SMILES_REPR>
COc1cccc(-c2cnc(-c3ccc(OC)c(OC)c3OC)o2)c1OC

>  <TARGET_SYSTEM>
Trypanosoma brucei rhodesiense

>  <CLASSIFICATION>
High

$$$$

# input Could you tell me which band `Oc1ccc(O)c(-c2cnc(-c3cc(O)ccc3O)o2)c1` belongs to?
# output High

# input Could you tell me which band `COc1cccc(-c2ncc(-c3ccccc3N(C)C)o2)c1OC` belongs to?
# output Medium
